B1: ZNF649 (parent)
chain: LTEHKRIHTGKKPHVCSLCGKAFY

Variants of: B1
Experiment: protein stability index of a GFP-peptide fusion (GPS, HEK-293T) (PSI 1-6); higher = more stable;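 note: lentivirally expressed fusions sorted by FACS into six bins by GFP to DsRed ratio, PSI derived from sequencing read proportions per bin multiplied by bin number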
Conditions: c terminus: a fixed tail appended
The reader will find reported protein stability index values listed item by item below.

# count of solved cases: 5
sequence-variant: C19A
protein stability index: 2.65
--
sequence-variant: H14S
protein stability index: 2.25
--
sequence-variant: L1M
protein stability index: 2.3
--
sequence-variant: S17T
protein stability index: 1.82
--
sequence-variant: Y24Q
protein stability index: 3.04

[Q] Please report protein stability index for the following variant: `H4A`
[A] 2.22

[Q] Entry `C16F` needs its protein stability index filled in; supply it.
[A] 1.48
